Counter-ions that a name gives are not always drawn.
Entries annotated with measured melting point

Recorded melting point, per entry:
# compound, melting point
data = [
    ("O=C(O)C1CCCCN1C(=O)/C=C/c1ccc(Sc2ccc3c(c2)OCCO3)c(C(F)(F)F)c1 (centres unmarked)", "90 °C (dec.)"),
    ("COC(=O)C1CNCCN1C(=O)/C=C/c1ccc(Sc2ccc3c(c2)OCCO3)c(C(F)(F)F)c1 (centres unmarked)", "70 to 72 °C"),
    ("O=C(O)CN1CCN(C(=O)/C=C/c2ccc(Sc3ccc4c(c3)OCCO4)c([N+](=O)[O-])c2)CC1 (as salt: salt)", "120 °C (dec.)"),
    ("COC(=O)N1CCN(C(=O)/C=C/c2ccc(Sc3ccc4c(c3)OCCO4)c(C(F)(F)F)c2)C(C(=O)O)C1 (centres unmarked)", "102 °C (dec.)"),
    ("O=C(O)C1CCN(C(=O)/C=C/c2ccc(Sc3ccc4c(c3)OCCO4)c(C(F)(F)F)c2)CC1", "88 °C (dec.)"),
    ("Nc1ccccc1Sc1ccc(/C=C/C(=O)N2CCOCC2)c(Cl)c1Cl", "230 to 240 °C (dec.)"),
    ("CC(C)(C)OC(=O)N1CCN(C(=O)/C=C/c2ccc(Sc3ccc4c(c3)OCCO4)c([N+](=O)[O-])c2)CC1", "165 to 167 °C"),
    ("O=C(O)C1CCCCN1C(=O)/C=C/c1ccc(Sc2ccc3c(c2)OCCO3)c([N+](=O)[O-])c1 (centres unmarked)", "165 °C (dec.)"),
]

Request the reported melting point associated with COC(=O)C1CN(C(=O)OC(C)(C)C)CCN1C(=O)/C=C/c1ccc(Sc2ccc3c(c2)OCCO3)c(C(F)(F)F)c1 (centres unmarked) 85 to 87 °C

Request the reported melting point associated with CCOC(=O)C1CCCN(C(=O)/C=C/c2ccc(Sc3ccc4c(c3)OCCO4)c([N+](=O)[O-])c2)C1 (centres unmarked) 73 to 75 °C

Request the reported melting point associated with CCOc1ccccc1Sc1ccc(/C=C/C(=O)N2CCCC(C(=O)O)C2)cc1Cl (centres unmarked) 166 to 171 °C

---

result.type: melting point

Recorded melting point, per entry:
# compound, melting point
data = [
    ("CCOc1ccccc1Sc1ccc(/C=C/C(=O)N2CCCCC2C(=O)O)cc1Cl (stereo not drawn)", "170 to 171 °C"),
    ("COC(=O)C1CN(C(=O)/C=C/c2ccc(Sc3ccc4c(c3)OCCO4)c(C(F)(F)F)c2)CCN1C(=O)OC (stereo not drawn)", "56 °C (dec.)"),
]

Request the reported melting point associated with CCOC(=O)C1CCCCN1C(=O)/C=C/c1ccc(Sc2ccc3c(c2)OCCO3)c([N+](=O)[O-])c1 (stereo not drawn) 74 to 75 °C

Every entry's value here was drawn from patent US6878700B1.
